Numbers sourced from ChEMBL document CHEMBL1154289.

Target: Fatty-acid amide hydrolase 1 (Homo sapiens) (UniProt O00519)
Sequence (O00519 whole entry): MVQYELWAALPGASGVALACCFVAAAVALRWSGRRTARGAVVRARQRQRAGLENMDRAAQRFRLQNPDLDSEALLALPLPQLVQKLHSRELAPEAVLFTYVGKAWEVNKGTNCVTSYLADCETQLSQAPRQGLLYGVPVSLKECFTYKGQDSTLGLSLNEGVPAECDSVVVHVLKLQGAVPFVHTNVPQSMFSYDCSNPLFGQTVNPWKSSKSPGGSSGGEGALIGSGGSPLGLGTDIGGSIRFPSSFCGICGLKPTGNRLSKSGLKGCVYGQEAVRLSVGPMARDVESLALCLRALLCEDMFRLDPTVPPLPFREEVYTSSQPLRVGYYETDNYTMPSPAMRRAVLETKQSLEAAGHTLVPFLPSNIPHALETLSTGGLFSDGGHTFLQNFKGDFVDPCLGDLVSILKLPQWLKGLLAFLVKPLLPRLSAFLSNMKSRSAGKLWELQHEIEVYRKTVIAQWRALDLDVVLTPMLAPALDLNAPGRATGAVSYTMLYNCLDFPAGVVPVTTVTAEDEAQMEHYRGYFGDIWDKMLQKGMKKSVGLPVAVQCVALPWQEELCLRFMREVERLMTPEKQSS
Assay: Inhibition of human FAAH assessed as ratio of Kinact to Ki
measured-property: log10 of Ratio (log10 of the value in M⁻¹ s⁻¹)
Please note: log10 values; quantity Ratio; unit M⁻¹ s⁻¹.

(Q) Return reported log10 of Ratio; argument: `Cc1noc(NC(=O)N2CC(CCCc3cccc(Oc4ccc(C(F)(F)F)cn4)c3)C2)c1C`
(A) 3.16

(Q) Subsequent entry: `O=C(Nc1cccnc1)N1CC(/C=C/Cc2cccc(Oc3ccc(C(F)(F)F)cn3)c2)C1`
(A) 3.97

(Q) Same question for `O=C(Nc1cccnc1)N1CC(C/C=C\c2cccc(Oc3ccc(C(F)(F)F)cn3)c2)C1` please.
(A) 2.89

(Q) Record: `O=C(Nc1cccnc1)N1CC(C/C=C/c2cccc(Oc3ccc(C(F)(F)F)cn3)c2)C1`
(A) 3.32

(Q) Would you mind doing `O=C(Nc1cccnc1)N1CC(/C=C\Cc2cccc(Oc3ccc(C(F)(F)F)cn3)c2)C1` as well?
(A) 3.95

(Q) Item: `O=C(Nc1cccnn1)N1CC(CCCc2cccc(Oc3ccc(C(F)(F)F)cn3)c2)C1`
(A) 3.48

(Q) Now consider `O=C(Nc1cccnc1)N1CC(=CCCc2cccc(Oc3ccc(C(F)(F)F)cn3)c2)C1` and answer again.
(A) 2.79

(Q) # iterate: `O=C(Nc1cncc2[nH]ccc12)N1CC(CCCc2cccc(Oc3ccc(C(F)(F)F)cn3)c2)C1`
(A) 2.94

(Q) Also need `O=C(Nc1cccnc1)N1CC(C#CCc2cccc(Oc3ccc(C(F)(F)F)cn3)c2)C1` , thanks.
(A) 2.94

(Q) Moving on to the next compound: `O=C(Nc1cccnc1)N1CC(CCCc2cccc(Oc3ccc(C(F)(F)F)cn3)c2)C1`
(A) 3.04
